Entries and their pKd values follow.
- Subject Of Test: human CA-XII (Homo sapiens, UniProt O43570)
- Construct: purchased Creative BioMart CA12-261H
- Sequence (O43570 25-354): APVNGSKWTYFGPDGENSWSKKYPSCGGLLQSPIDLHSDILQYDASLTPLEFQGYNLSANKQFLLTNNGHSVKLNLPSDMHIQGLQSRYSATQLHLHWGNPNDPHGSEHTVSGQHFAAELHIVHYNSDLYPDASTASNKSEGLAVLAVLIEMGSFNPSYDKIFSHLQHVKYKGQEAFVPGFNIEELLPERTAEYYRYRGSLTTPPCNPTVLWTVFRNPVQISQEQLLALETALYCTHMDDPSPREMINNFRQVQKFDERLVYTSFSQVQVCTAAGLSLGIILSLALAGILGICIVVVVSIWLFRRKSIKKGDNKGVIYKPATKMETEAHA
- Experiment Notes: Surface Plasmon Resonance (SPR) binding kinetics to recombinant human CA-XII (Biacore 8K, single-cycle kinetics, 1:1 binding model)
- Condition Label: Chelated Metal: Lu-175, 25° C., pH 7.4, read-out: CAXII KD
pKd: −log10 of the molar value.

| Molecular String | Subject Of Test | Value |
| --- | --- | --- |
| NS(=O)(=O)c1nnc(NC(=O)C23CC(c4cn(CCNC(=O)[C@@H]5CN(C(=O)CN6CCN(CC(=O)O)CCN(CC(=O)O)CCN(CC(=O)O)CC6)CCN5C(=O)C[C@H](NC(=O)C[C@H](NC(=O)Cc5n[nH]c6ccccc56)C(=O)O)C(=O)O)nn4)(C2)C3)s1.[Lu+3] | human CA-XII (Homo sapiens, UniProt O43570) | 8.00 to 8.60 |

Next compound, please.
Field request: pKd | item: NS(=O)(=O)c1nnc(NC(=O)C23CC(c4cn(CCNC(=O)[C@@H]5CN(C(=O)CN6CCN(CC(=O)O)CCN(CC(=O)O)CCN(CC(=O)O)CC6)CCN5C(=O)CNC(=O)C5(C(=O)O)CCN(C(=O)c6n[nH]c7ccccc67)CC5)nn4)(C2)C3)s1.[Lu+3]
< 8.00
